Please provide measured Ki for the entries that follow.
# testedSystem: hMCHR (MCH receptor) (Homo sapiens, UniProt Q99705)
# Construct: (or internally produced); host or cells: CHO (Chinese hamster ovary) cells, membrane preparation
# Sequence (Q99705 whole entry): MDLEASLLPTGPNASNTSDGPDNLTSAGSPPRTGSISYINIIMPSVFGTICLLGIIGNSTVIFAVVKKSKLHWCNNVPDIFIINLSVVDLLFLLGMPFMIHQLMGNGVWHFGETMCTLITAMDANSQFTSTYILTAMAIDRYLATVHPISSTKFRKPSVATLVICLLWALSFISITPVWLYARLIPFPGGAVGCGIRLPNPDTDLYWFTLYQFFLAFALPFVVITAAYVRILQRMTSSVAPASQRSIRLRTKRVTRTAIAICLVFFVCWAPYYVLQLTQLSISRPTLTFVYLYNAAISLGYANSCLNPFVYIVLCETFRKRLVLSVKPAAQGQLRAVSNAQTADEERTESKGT
# experiment: MCH Assay PCOP Protocol ([125I]-MCH SPA binding to hMCHR-CHO membranes)
# testParameters: [125I]-MCH 0.5 nM, hMCHR-CHO membranes; read-out: Activity (ranges of Ki values)

Asked: May I ask what Ki has been recorded for CC(C)NCCC(CNC(=O)Oc1ccc(Cl)cc1)c1ccc(-c2cccc(C#N)c2)cc1 (racemic) ?
Given back: 501 to 2500 nM

Asked: Next: O=C(NCC(CCNC1CCCC1)c1ccc(Cl)cc1)Nc1cccc(Br)c1 (stereo not drawn)
Given back: 51 to 500 nM

Asked: Next: CN(C)CCC(CNC(=O)Nc1cc(Cl)cc(Cl)c1)c1ccc(-c2cccc(C(N)=O)c2)cc1 (stereo not drawn)
Given back: 0.4 to 50 nM

Asked: Next: O=C(NCC(CCNC1CCCC1)c1ccc(-c2ccc(F)c(F)c2)cc1)Nc1cc(Cl)cc(Cl)c1 (stereo not drawn)
Given back: 0.4 to 50 nM

Asked: Next: CS(=O)(=O)N(CCC(CNC(=O)Nc1cc(Cl)cc(Cl)c1)c1ccc(-c2cccc(C#N)c2)cc1)C1CCCC1 (stereo not drawn)
Given back: 501 to 2500 nM

Asked: Next: CN(C)CCCNCCC(CNC(=O)Nc1cc(Cl)cc(Cl)c1)c1cccc(-c2ccc(F)c(Cl)c2)c1 (stereo not drawn)
Given back: 501 to 2500 nM

Asked: Next: CCCOC(=O)N1CCN(CCC(CNC(=O)Nc2cc(C(F)(F)F)cc(C(F)(F)F)c2)c2ccc(Cl)c(Cl)c2)CC1 (stereo not drawn)
Given back: 51 to 500 nM

Asked: Next: CN(C)CCCNCCC(C)(CNC(=O)Nc1ccc(Cl)c([N+](=O)[O-])c1)c1ccc(Cl)c(Cl)c1 (stereo not drawn)
Given back: 501 to 2500 nM

Asked: Next: CN(C)CCCNCCC(CNC(=O)Nc1cc(Cl)cc(Cl)c1)c1cccc(-c2cccc(C#N)c2)c1 (stereo not drawn)
Given back: 501 to 2500 nM

Asked: Next: CN(C)CCCNCCC(CNC(=O)Nc1cc(Cl)cc(Cl)c1)c1cccc(-c2ccc(Cl)cc2)c1 (stereo not drawn)
Given back: 51 to 500 nM

Asked: Next: CN(C)CCCNCCC(CNC(=O)Nc1cc(Cl)cc(Cl)c1)c1cccc(-c2cccc(F)c2)c1 (stereo not drawn)
Given back: 501 to 2500 nM

Asked: Next: O=C(NCC(CCNC1CCCC1)c1cccc(-c2ccc(F)c(Cl)c2)c1)Nc1cc(Cl)cc(Cl)c1 (stereo not drawn)
Given back: 51 to 500 nM

Asked: Next: CN(C)CCCNCCC(CNC(=O)Nc1ccc(Cl)c([N+](=O)[O-])c1)c1ccc2c(c1)OCO2 (stereo not drawn)
Given back: 501 to 2500 nM

Asked: Next: CN(C)CCC(CNC(=O)Nc1cc(Cl)cc(Cl)c1)c1ccc(-c2ccncc2)cc1 (stereo not drawn)
Given back: 51 to 500 nM

Asked: Next: Cc1ccc(-c2cccc(C(CCNCCCN(C)C)CNC(=O)Nc3cc(Cl)cc(Cl)c3)c2)cc1 (stereo not drawn)
Given back: 501 to 2500 nM
